# test_system: Parathyroid hormone/parathyroid hormone-related peptide receptor (Homo sapiens, UniProt Q03431)
# Sequence (Q03431 whole entry): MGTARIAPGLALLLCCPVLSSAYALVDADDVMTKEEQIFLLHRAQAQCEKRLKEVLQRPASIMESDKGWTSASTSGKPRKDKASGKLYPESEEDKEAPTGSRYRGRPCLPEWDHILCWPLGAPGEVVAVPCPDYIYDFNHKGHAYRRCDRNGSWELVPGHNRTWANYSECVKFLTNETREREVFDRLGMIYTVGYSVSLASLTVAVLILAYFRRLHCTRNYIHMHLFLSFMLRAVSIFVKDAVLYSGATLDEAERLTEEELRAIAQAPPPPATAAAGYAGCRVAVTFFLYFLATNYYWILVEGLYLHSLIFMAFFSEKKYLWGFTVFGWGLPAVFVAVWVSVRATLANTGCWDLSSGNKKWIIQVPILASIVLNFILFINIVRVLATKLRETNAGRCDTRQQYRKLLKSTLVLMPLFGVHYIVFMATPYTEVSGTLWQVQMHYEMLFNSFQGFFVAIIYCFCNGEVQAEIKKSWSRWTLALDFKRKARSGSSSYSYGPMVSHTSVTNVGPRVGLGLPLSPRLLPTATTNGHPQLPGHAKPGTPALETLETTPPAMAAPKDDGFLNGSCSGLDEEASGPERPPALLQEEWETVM
# assay_summary: Displacement of [125I]-[Nle,8,18 Tyr34]-hPTH(1-34) from human recombinant PTH1R expressed in HEK293 cells
readout: Ki (nM)
Field: numeric (nM). Do not append units.

Tell me Ki reported for COCCN1N=C(C2CCCCC2)c2ccc(C)cc2N(c2ccc(NCCc3ncc[nH]3)cc2)C1=O 83.2

Hello, please tell me recorded Ki for this one: Cc1ccc2c(c1)N(c1ccc(NCc3ncc[nH]3)cc1)C(=O)N(C)N=C2C1CCCCC1 50.1

Return Ki (reported value) for this compound: Cc1ccc2c(c1)N(c1ccc(NCCc3ncc[nH]3)cc1)C(=O)N(C)N=C2C1CCOCC1 617

Please supply the value of reported Ki for the item N=C(N)Nc1ccc(N2C(=O)N(Cc3ccccc3)N=C(CC3CCCCC3)c3ccccc32)cc1 562

Let me know recorded Ki for O=C1N(Cc2ccccc2)N=C(C2CCCCC2)c2ccccc2N1c1ccc(NC2=NCCN2)cc1 , thanks. 288

Using known records, supply Ki for Cc1ccc2c(c1)N(c1ccc(NC(=O)C(N)C(C)C)cc1)C(=O)N(Cc1ccccc1)N=C2C1CCCCC1 (stereo not drawn) 112

# return recorded Ki for entry Cc1ccc2c(c1)N(c1ccc(NCCc3ncc[nH]3)cc1)C(=O)N(C1COc3ccccc3OC1)N=C2C1CCCCC1 8.71

Supply reported Ki belonging to this compound: Cc1ccc2c(c1)N(c1ccc(NCCc3ncc[nH]3)cc1)C(=O)N(C1CCc3ccccc3CC1)N=C2C1CCCCC1 0.912

Output Ki of N=C(N)Nc1ccc(CN2C(=O)N(Cc3ccccc3)N=C(C3CCCCC3)c3ccccc32)cc1 933

Tell us which Ki value is on record for Cc1ccc2c(c1)N(c1ccc(NC3=NCCN3)cc1)C(=O)N(Cc1ccccc1)N=C2C1CCCCC1 70.8

Give recorded Ki. Cc1ccc2c(c1)N(c1ccc(NCCc3ncc[nH]3)cc1)C(=O)N(Cc1ccccc1)N=C2C1CCCCC1 3.8

Item Cc1ccc2c(c1)N(c1ccc(NC(=N)N)cc1)C(=O)N(Cc1ccccc1)N=C2C1CCCCC1 : provide Ki 155

Return Ki (reported value) for this compound: CC(C)C(N)C(=O)Nc1ccc(N2C(=O)N(Cc3ccccc3)N=C(C3CCCCC3)c3ccccc32)cc1 (stereo not drawn) 380
